assay: absolute recovery over mixed-bed multilayer solid-phase extraction; higher = better recovery; conditions: wastewater influent; enrichment method: SPE
attribute measured: absolute recovery (%)

Solved entries (count: 8):
molecule: CCCOC(=O)NCCC[NH+](C)C [Propamocarb]
attribute measured: absolute recovery
quantity unit: %
assay value: 86.5
//
molecule: CC(C)Nc1nc(O)nc(NC(C)C)n1 [Propazine-2-hydroxy I]
attribute measured: absolute recovery
quantity unit: %
assay value: 88
//
molecule: CNC(=O)CSP(=S)(OC)OC [Dimethoat]
attribute measured: absolute recovery
quantity unit: %
assay value: 92.3
//
molecule: Cc1ccc(NC=O)c(C)c1 [2-4-dimethylphenylformamid]
attribute measured: absolute recovery
quantity unit: %
assay value: 96.3
//
molecule: NS(=O)(=O)c1cc(C(=O)[O-])c(NCc2ccco2)cc1Cl [Furosemid]
attribute measured: absolute recovery
quantity unit: %
assay value: 87.3
//
molecule: O=[N+]([O-])C(Br)(CO)CO [Bronopol]
attribute measured: absolute recovery
quantity unit: %
assay value: 7.8
//
molecule: CC(C)N(C(=O)CS(=O)(=O)[O-])c1ccccc1 [Propachlor-ESA]
attribute measured: absolute recovery
quantity unit: %
assay value: 96.4
//
molecule: CC(C)N1C(=O)N(c2ccccc2)CSC1=NC(C)(C)C [Buprofezin]
attribute measured: absolute recovery
quantity unit: %
assay value: 118

1: COc1cc(OC)nc(NC(=O)[N-]S(=O)(=O)N(C)S(C)(=O)=O)n1 [Amidosulfuron]
2: CCOc1ccc2ccccc2c1C(=O)NC1C(=O)N2C1SC(C)(C)C2C(=O)[O-] (stereo unspecified) [Nafcillin]
Lookup: Determine, for 1 and 2 , which has the greater value of absolute recovery. Give the label of your selection.
Found: 1
(1: 111%, 2: 44.8%)

A: Nc1ccn(C2OC(CO)C(O)C2O)c(=O)n1 (stereo unspecified) [Cytarabin]
B: Cc1ccc(NS(=O)(=O)N(C)C)cc1 [N-N-dimethyl-N-(4-methylphenyl)-sulfamide]
C: O=c1[nH]cc(F)c(=O)[nH]1 [5-Fluorouracil]
Lookup: Falling order of absolute recovery, please. Please, when replying, give the labels in the order that was requested.
Found: B, A, C

I: Clc1ccccc1C(c1ccccc1)(c1ccccc1)n1ccnc1 [Clotrimazol]
II: O=C1Nc2ccc(Cl)cc2C(C#CC2CC2)(C(F)(F)F)O1 (stereo unspecified) [Efavirenz]
Lookup: Determine, for I and II , which has the greater value of absolute recovery. Give the label of your selection.
Found: II
(II: 134%, I: 90.1%)

FYI, the data here is from the supplement of paper PMC6470124.
